Biological target: 72 kDa type IV collagenase (Homo sapiens, UniProt P08253);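 further: recombinant human enzyme, inhibition read after a 30 min incubation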
Sequence (P08253 110-660 limits assumed): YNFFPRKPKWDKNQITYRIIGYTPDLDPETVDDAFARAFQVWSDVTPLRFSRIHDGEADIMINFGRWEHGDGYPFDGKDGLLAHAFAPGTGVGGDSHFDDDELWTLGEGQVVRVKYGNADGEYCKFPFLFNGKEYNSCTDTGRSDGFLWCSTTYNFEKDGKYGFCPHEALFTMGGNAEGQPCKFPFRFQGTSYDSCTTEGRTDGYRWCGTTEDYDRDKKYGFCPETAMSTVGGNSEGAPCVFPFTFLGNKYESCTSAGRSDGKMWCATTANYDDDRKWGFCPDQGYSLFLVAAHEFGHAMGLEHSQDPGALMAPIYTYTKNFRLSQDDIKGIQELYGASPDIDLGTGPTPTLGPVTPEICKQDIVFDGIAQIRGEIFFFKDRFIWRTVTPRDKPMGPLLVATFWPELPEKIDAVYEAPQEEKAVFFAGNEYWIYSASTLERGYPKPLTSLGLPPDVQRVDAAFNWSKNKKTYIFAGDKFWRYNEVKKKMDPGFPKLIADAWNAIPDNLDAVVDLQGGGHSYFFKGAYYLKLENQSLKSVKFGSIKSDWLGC
Settings: at 1 mM
# key: entry, value: inhibition
QUANTITY_KIND: inhibition (%)

[[record]]
cpd_smiles = "CC(=O)C(C)C(C)=O"
endpoint_result = -3

[[record]]
cpd_smiles = "CC(C)c1cccc(C(=O)O)c1O"
endpoint_result = -2

[[record]]
cpd_smiles = "Cc1cccc(C(=O)O)c1O"
endpoint_result = 1

[[record]]
cpd_smiles = "O=C(O)c1cccc2cccnc12"
endpoint_result = 25

[[record]]
cpd_smiles = "O=C(O)c1ccc2ccccc2n1"
endpoint_result = 37

[[record]]
cpd_smiles = "[O-][n+]1ccccc1S"
endpoint_result = 91

[[record]]
cpd_smiles = "Cn1cccc(O)c1=O"
endpoint_result = 4

[[record]]
cpd_smiles = "Cc1nc(O)cc(O)n1"
endpoint_result = 2

[[record]]
cpd_smiles = "Nc1cc(=O)nc(N)[nH]1"
endpoint_result = 6

